We begin with a simple list: items and their reported pIC50.
# MEASURED ON: TIP60-KAT5 (Homo sapiens, UniProt Q92993)
# Construct: encoding amino acid residues 2 to 461 (Uniprot Q92993-2) of human KAT5 isoform; made in house; host or cells: E. coli BL21 DE3
# Sequence (Q92993 2-461 isoform Q92993-2): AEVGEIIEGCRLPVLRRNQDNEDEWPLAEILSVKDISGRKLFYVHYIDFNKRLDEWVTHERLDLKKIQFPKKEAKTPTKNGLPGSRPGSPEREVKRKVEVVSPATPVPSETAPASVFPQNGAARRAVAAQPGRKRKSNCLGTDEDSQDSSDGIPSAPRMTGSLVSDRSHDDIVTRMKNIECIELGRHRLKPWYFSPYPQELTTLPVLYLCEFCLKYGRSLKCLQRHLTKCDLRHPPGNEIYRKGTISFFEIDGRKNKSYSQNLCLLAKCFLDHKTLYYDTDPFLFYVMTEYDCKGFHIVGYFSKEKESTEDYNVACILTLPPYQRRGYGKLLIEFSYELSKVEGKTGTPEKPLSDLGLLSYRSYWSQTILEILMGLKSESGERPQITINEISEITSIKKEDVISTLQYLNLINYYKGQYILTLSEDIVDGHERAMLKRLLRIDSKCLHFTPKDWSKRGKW
# ASSAY PROTOCOL: Revised Acetyltransferase Biochemical Assay, KAT5
# STATED CONDITIONS: 10 nM KAT5, 1 μM AcCoA, 100 nM histone H4, 90 min
Please note pIC50 is a logarithmic value: minus log10 of concentration in mol/L. Answer with that number alone.

Observe how each entry below is paired with its result.
INSERT INTO results (compound, test_readout, test_result) VALUES
  ('CN(CC(c1ccccc1)c1ncco1)C(=O)C1=Nc2ccc(I)cc2S(=O)(=O)N1 (stereo not shown)', 'pIC50', 5.43),
  ('O=C(NCC(c1ccc(F)cc1)c1ncco1)C1=Nc2ccc(I)cc2S(=O)(=O)N1 (stereo not shown)', 'pIC50', 6.11),
  ('O=C(NCC(c1ccccc1)c1ccccc1)C1=Nc2ccc(Br)cc2S(=O)(=O)N1', 'pIC50', 5.26);

// next item, pIC50 requested
*Q* Which value of pIC50 has been reported for O=C(NCC(c1cccc(Cl)c1)c1ncco1)C1=Nc2ccc(O)cc2S(=O)(=O)N1 (stereo not shown) in the records?
*A* 5.05

###

Each entry below carries its recorded log10 IC50.
# MEASURED ON: MOF-KAT8 (Homo sapiens, UniProt Q9H7Z6)
# Sequence (Q9H7Z6 177-447): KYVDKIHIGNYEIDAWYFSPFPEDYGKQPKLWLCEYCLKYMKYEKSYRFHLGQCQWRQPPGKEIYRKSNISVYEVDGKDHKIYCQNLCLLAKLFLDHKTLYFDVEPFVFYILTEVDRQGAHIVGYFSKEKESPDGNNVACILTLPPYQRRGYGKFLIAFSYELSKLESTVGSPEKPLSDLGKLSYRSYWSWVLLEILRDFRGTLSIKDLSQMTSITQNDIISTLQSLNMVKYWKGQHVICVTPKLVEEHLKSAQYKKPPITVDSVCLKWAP
# ASSAY PROTOCOL: Revised Acetyltransferase Biochemical Assay, KAT8
Hello, just confirming the data are log10 of IC50 with units of µM.

Worked cases, answers included:
INSERT INTO results (compound, test_readout, test_result) VALUES
  ('COc1cccc(C(CNC(=O)C2=Nc3ccc(Br)cc3S(=O)(=O)N2)c2ncco2)c1 (centres unmarked)', 'log10 IC50', 1.73),
  ('O=C(NCC(c1cccc(O)c1)c1ncco1)C1=Nc2ccc(Br)cc2S(=O)(=O)N1 (centres unmarked)', 'log10 IC50', 1.30),
  ('O=C(NCC(c1ccccc1)c1ncco1)C1=Nc2ccc(C(F)(F)F)cc2S(=O)(=O)N1 (centres unmarked)', 'log10 IC50', 1.62);

*Q* Look at this compound and give its reported log10 IC50. O=C(NCC(c1ccccc1)c1ncco1)C1=Nc2ccc(-c3c[nH]nn3)cc2S(=O)(=O)N1 (centres unmarked)
*A* 1.18

###

# MEASURED ON: MOZ-KAT6A (Homo sapiens, UniProt Q92794, A567V)
# Construct: encoding amino acid residues 507 to 778 (Uniprot Q92794-1) of human KAT6A; made in house; host or cells: E. coli BL21 DE3
# Sequence (Q92794 507-778 A567V limits assumed): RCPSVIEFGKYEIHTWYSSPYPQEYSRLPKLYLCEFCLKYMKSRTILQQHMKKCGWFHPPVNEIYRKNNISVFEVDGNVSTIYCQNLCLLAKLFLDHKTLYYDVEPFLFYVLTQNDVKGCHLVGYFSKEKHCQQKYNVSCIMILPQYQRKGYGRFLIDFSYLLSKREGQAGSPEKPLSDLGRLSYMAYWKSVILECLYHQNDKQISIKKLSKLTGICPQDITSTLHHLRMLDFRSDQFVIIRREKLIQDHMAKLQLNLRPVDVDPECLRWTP
# ASSAY PROTOCOL: Revised Acetyltransferase Biochemical Assay, KAT6A
# STATED CONDITIONS: Table 8 (MOZ-KAT6A), 1 μM Acetyl coenzyme A
Listed below: pIC50 values for each entry.
Recall that pIC50 is obtained by taking minus log10 of the concentration measured in molar.

A selection of reference data follows.
INSERT INTO results (molecule, test_readout, test_result) VALUES
  ('NC(=O)c1ccccc1CCNC(=O)C1=Nc2ccc(I)cc2S(=O)(=O)N1 [Example 230]', 'pIC50', 6.12),
  ('CN(C)C(=O)c1ccc2c(c1)S(=O)(=O)NC(C(=O)NCC(c1ccccc1)c1ncco1)=N2 (centres unmarked) [Example 33]', 'pIC50', 7.33),
  ('O=C(NCC(F)(c1ccccc1)c1ncco1)C1=Nc2ccc(I)cc2S(=O)(=O)N1 (centres unmarked) [Example 177]', 'pIC50', 8.40);

*Q* // map O=C(NCC(c1ccccc1)c1ncco1)C1=Nc2ccc(-c3cn[nH]c3)cc2S(=O)(=O)N1 (centres unmarked) [Example 26] to recorded pIC50 (system: MOZ-KAT6A (Homo sapiens, UniProt Q92794, A567V))
*A* 7.39

*Q* // lookup pIC50 | system=MOZ-KAT6A (Homo sapiens, UniProt Q92794, A567V) | key= O=C(NCC(CO)c1ccccc1)C1=Nc2ccccc2S(=O)(=O)N1 (centres unmarked) [Example 2]
*A* 5.29

###

# MEASURED ON: TIP60-KAT5 (Homo sapiens)
# Construct: encoding amino acid residues 2 to 461 (Uniprot Q92993-2) of human KAT5 isoform; made in house; host or cells: E. coli BL21 DE3
# ASSAY PROTOCOL: Acetyltransferase biochemical assay (AlphaScreen), KAT5
# STATED CONDITIONS: Table 1 (TIP60-KAT5); 0.4 μM Acetyl coenzyme A, histone H4, 10 nM enzyme
TEST READOUT: IC50 (µM)
Return type: number; implicit unit µM.

// solved cases for IC50 follow
INSERT INTO measurements (compound, test_result) VALUES
  ('Cc1ncccc1-c1ccccc1CCNC(=O)C1=Nc2ccccc2S(=O)(=O)N1 [Example 6]', 90.1),
  ('COC(=O)c1ccc2c(c1)S(=O)(=O)NC(C(=O)NCC(c1ccccc1)c1ncco1)=N2 (centres unmarked) [Example 23]', 3.73),
  ('[C-]#[N+]c1ccc2c(c1)S(=O)(=O)NC(C(=O)NCC(c1ccccc1)c1ncco1)=N2 (single isomer, unassigned) [Example 143]', 13.8),
  ('O=C(NCCc1ccccc1C(F)(F)F)C1=Nc2ccc(I)cc2S(=O)(=O)N1 [Example 118]', 2.29);

Consider now this further compound.
*Q* Consider the compound O=C(NCC(O)c1ccccc1)C1=Nc2ccc(I)cc2S(=O)(=O)N1 (centres unmarked) [Example 87] and give its measured IC50.
*A* 4.47

###

# MEASURED ON: TIP60-KAT5 (Homo sapiens, UniProt Q92993)
# Construct: encoding amino acid residues 2 to 461 (Uniprot Q92993-2) of human KAT5 isoform; made in house; host or cells: E. coli BL21 DE3
# ASSAY PROTOCOL: Acetyltransferase biochemical assay (AlphaScreen), KAT5
# STATED CONDITIONS: Table 1 (TIP60-KAT5); 0.4 μM Acetyl coenzyme A, histone H4, 10 nM enzyme
TEST READOUT: IC50 (µM)
Your answer should be a plain number; it is taken to be in µM.

*Q* # query: IC50 of entry O=C(NCC(F)c1ccccc1)C1=Nc2ccc(I)cc2S(=O)(=O)N1 (centres unmarked)
*A* 5.01

*Q* Look up IC50 for this compound: O=C(NCC(c1ccccc1)n1cccn1)C1=Nc2ccc(Br)cc2S(=O)(=O)N1 (centres unmarked)
*A* 0.778

*Q* Quick one: IC50 for O=C(NCCc1cccc(O)c1)C1=Nc2ccc(I)cc2S(=O)(=O)N1 ?
*A* 27.1

*Q* Query: IC50; subject: C#Cc1ccc2c(c1)S(=O)(=O)NC(C(=O)NCC(c1ccccc1)c1ccccc1)=N2
*A* 1.96

*Q* Please give the measured IC50 for this compound: O=C(NCC(c1ccccc1)c1ncco1)C1=Nc2ccc(F)cc2S(=O)(=O)N1 (single isomer, unassigned) [Example 144]
*A* 1.65

*Q* Need IC50 of O=C(NCC(c1ccc(F)cc1)c1ccccn1)C1=Nc2ccc(Br)cc2S(=O)(=O)N1 (centres unmarked) , thanks.
*A* 5.88

*Q* I have this compound here, O=C(NCC(O)c1ccccc1OC(F)F)C1=Nc2ccc(I)cc2S(=O)(=O)N1 (centres unmarked) , and I need its recorded IC50.
*A* 2.8

###

# MEASURED ON: TIP60-KAT5 (Homo sapiens)
# Construct: encoding amino acid residues 2 to 461 (Uniprot Q92993-2) of human KAT5 isoform; made in house; host or cells: E. coli BL21 DE3
# ASSAY PROTOCOL: Revised Acetyltransferase Biochemical Assay, KAT5
# STATED CONDITIONS: 10 nM KAT5, 1 μM AcCoA, 100 nM histone H4, 90 min
Collected pIC50 values appear next to each entry.
// pIC50 is dimensionless: -log10 of concentration (M)

Answered cases to consult:
INSERT INTO measurements (compound, test_readout, test_result) VALUES
  ('O=C(NCC(c1ccccc1)c1ncco1)C1=Nc2ccc(-c3nccs3)cc2S(=O)(=O)N1 (centres unmarked)', 'pIC50', 6.19),
  ('Cc1cc(O)cc(C(CNC(=O)C2=Nc3ccc(Cl)cc3S(=O)(=O)N2)c2ncco2)c1 (centres unmarked)', 'pIC50', 5.80),
  ('O=C(NCC(c1cccc(O)c1)c1ncco1)C1=Nc2ccc(Cl)cc2S(=O)(=O)N1 (centres unmarked)', 'pIC50', 6.30),
  ('O=C(NCC(c1ncco1)c1ccccc1F)C1=Nc2ccc(I)cc2S(=O)(=O)N1 (centres unmarked)', 'pIC50', 7.47),
  ('CNC(=O)c1ccc2c(c1)S(=O)(=O)NC(C(=O)NCC(c1ccccc1)c1ncco1)=N2 (centres unmarked)', 'pIC50', 5.27);

Now consider the entry below.
*Q* Using the record for O=C(NCC(c1ccccc1)c1ncco1)C1=Nc2cccnc2S(=O)(=O)N1 (centres unmarked) , report its pIC50.
*A* 4.88
